Recorded SPOT peptide array binding signal intensity values for a group of binders are listed next.
target.desc: AgNbp2
test: SPOT peptide array binding signal intensity (averaged, normalized) (arbitrary units (background-subtracted, floor 0; scale differs between SH3 domains)); higher = stronger binding of the SH3 domain to the peptide
Respond using a number only.

The cases that follow already have their SPOT peptide array binding signal intensity on record.
APKREAPKPPANTSP : 382
KNPRRQLQIPRQQPS : 16.5

Which measured SPOT peptide array binding signal intensity value corresponds to PKRRAPPPVPKKPSS ?
5620

What measured SPOT peptide array binding signal intensity goes with NRLRKRLNLPSEISI ?
74

Which measured SPOT peptide array binding signal intensity value corresponds to FFRRSELYLPNSSKA ?
11

Quick one: SPOT peptide array binding signal intensity for LRIKRKPVQTFFEFI ?
72

GET /values?readout=SPOT peptide array binding signal intensity&item= HGKRRAPLLLAKLDV
58

Given TPRLSLPRLPNKHHW , state its recorded SPOT peptide array binding signal intensity.
26

Given RSRRSSFAYPQQVAI , state its recorded SPOT peptide array binding signal intensity.
39

Entry under review: RKNRAPPQRPRFNRE . Reported SPOT peptide array binding signal intensity?
1890

Recorded SPOT peptide array binding signal intensity for VSKLRSPNTPRRLRK , please?
84.2

Please report the recorded SPOT peptide array binding signal intensity for PSRRAPLQLPQLVNK .
3

FYI, the data here is from the supplement of paper PMC4466140.
